Please go through the items and note down their IC50 (ug/ml), pseudovirus neutralization, TZM-bl assay.
assay.target: HIV-1 JR-CSF Env on pseudovirus (HIV-1 JR-CSF) (UniProt P20871)
test.name: cell-based or functional assay
Give the number first and the unit second.

(Q) Any idea what IC50 (ug/ml), pseudovirus neutralization, TZM-bl assay was measured for 1456_A12 (PG16) (TCN-117) (antibody, V domains shown) VH: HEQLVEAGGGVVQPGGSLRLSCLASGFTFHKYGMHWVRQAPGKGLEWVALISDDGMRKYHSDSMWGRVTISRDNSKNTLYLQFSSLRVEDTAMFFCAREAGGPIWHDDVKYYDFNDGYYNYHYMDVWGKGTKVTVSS VL: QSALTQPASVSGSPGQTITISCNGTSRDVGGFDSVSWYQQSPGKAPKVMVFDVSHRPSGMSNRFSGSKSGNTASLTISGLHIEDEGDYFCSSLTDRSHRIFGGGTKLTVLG ?
(A) 0.001 µg/mL

(Q) Can you share its IC50 (ug/ml), pseudovirus neutralization, TZM-bl assay? I mean this binder: 1503_H05 (PG16) (TCN-119) (antibody, V domains shown) VH: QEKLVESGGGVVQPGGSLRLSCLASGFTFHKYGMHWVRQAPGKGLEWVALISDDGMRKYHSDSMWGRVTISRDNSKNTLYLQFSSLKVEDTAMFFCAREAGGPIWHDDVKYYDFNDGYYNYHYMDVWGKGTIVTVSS VL: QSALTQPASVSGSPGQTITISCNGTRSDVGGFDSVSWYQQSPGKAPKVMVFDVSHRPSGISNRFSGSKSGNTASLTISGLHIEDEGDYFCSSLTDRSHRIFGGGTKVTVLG
(A) 0.001 µg/mL

(Q) Please give the measured IC50 (ug/ml), pseudovirus neutralization, TZM-bl assay for this binder: 1469_M23 (PG16) (TCN-118) (antibody, V domains shown) VH: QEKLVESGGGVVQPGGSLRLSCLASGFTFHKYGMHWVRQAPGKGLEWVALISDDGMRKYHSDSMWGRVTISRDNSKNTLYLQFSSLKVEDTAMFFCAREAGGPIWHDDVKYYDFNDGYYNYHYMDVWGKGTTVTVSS VL: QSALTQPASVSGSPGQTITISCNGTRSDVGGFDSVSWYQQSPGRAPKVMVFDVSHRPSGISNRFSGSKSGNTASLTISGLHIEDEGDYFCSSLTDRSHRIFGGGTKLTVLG
(A) 0.002 µg/mL

Entry source: patent US20140205612A1
